Hey, just so you know, these numbers are from paper PMC5540273.

Listing of entries alongside the reported %Inh.
System: ADCK4
Conditions: concentration: 1 μM, replicates: in singlicate; n = 1;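 note: KINOMEscan kinase panel screen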
MEASUREMENT_LABEL: %Inh

> print(dat)
                              line.notation  measurement.label  value.measured
1  COCCNC(=O)c1ccc(-c2cc(C(=O)NC3CC3)cc(F)c2C)cc1               %Inh              0%
2  COc1ccc(S(=O)(=O)NC2CCN(c3cc(C)nc(Nc4cccc(C#N)c4)n3)CC2)cc1.O=C(O)C(F)(F)F               %Inh             35%
3  Fc1ccc(-c2ncn(CCCN3CCOCC3)c2-c2cccnc2)cc1               %Inh              0%
4                        CCn1cnc2c(N)ncnc21               %Inh              0%
5  O=C(NCCCN1CCOCC1)c1cccc(Nc2nccc(Nc3ccc(Oc4ccccc4)cc3)n2)c1               %Inh             36%

###

Tested on: RPS6KA4(Kin.Dom.1-N-terminal)
Conditions: concentration: 1 μM, replicates: in singlicate; n = 1
Please mark t if the recorded %Inh is equal to or greater than 10%, and f if it falls below.

> print(dat)
                                   compound  assigned.label
1  Cn1cc(-c2ccc3c(c2)CCN3C(=O)Cc2ccccc2Cl)c2c(N)ncnc21 [GSK2608885]               t
2  [2H]C([2H])(c1cccc(C(F)(F)F)c1C)n1ccn2c(=O)nc(N3CCOCC3)cc12 [GSK2336394]               t
3  COc1cc2c(cc1OCCN1CCN(C)CC1)ncc1c3ccc(C#N)cc3[nH]c21               f
4  O=c1cc(N2CCOCC2)nc2n(Cc3cccc(F)c3)ccn12 [GSK2297430]               t
5  N#Cc1ccc(-c2cc(-c3c[nH]nc3-c3ccccn3)ccn2)cc1 [GW693028]               f
6  COC(=O)Nc1nc2cc(Oc3ccc(NC(=O)Nc4cc(F)ccc4F)cc3)ccc2[nH]1.Cl [GW701424]               f
7  C[C@@H](Oc1cc(-n2cnc3ccc(NC(=O)NC(C)(C)C)cc32)sc1C(N)=O)c1ccccc1Cl [GSK346294]               t

###

Tested on: MRCKA
Conditions: concentration: 1 μM, replicates: in singlicate; n = 1
Listing of entries alongside the reported %Inh.
MEASUREMENT_LABEL: %Inh (%)

> print(dat)
                              line.notation  value.measured
1  COc1cc2ncn(-c3cc(OCc4sccc4Cl)c(C(N)=O)s3)c2cc1OC               4
2  COc1cc2c(cc1OCCN1CCN(C)CC1)ncc1c3ccc(C#N)cc3[nH]c21              10
3  Cc1cccc(-c2nc(Nc3ccc4ncsc4c3)c3ccccc3n2)n1               2
4  Cc1ccc(NC(=O)c2ccnc(N3CCN(C)CC3)c2)cc1-c1ccc(C(=O)NCC2CC2)cc1               0
5  O=C(NCCNc1ccnc(Nc2ccc(F)cc2)n1)c1cc2ccccc2s1              13

###

Listing of entries alongside the reported %Inh.
Test system: DDR1
Conditions: concentration: 1 μM, replicates: in singlicate; n = 1
MEASUREMENT_LABEL: %Inh (%)

> print(dat)
                                   molecule  measurement.label  value.measured
1  CC(C)Oc1ccc2c(-c3ccnc(Nc4ccc(N5CCN(C)CC5)cc4)n3)cnn2n1               %Inh              45
2  O=C(c1ccc(-c2cc(-c3c[nH]nc3-c3ccccn3)ccn2)cc1)N1CCOCC1               %Inh               0
3  COc1ccc(Nc2nccc(N3CCC(NC(=O)Nc4cccc(C(C)=O)c4)C3)n2)cc1 (stereo not shown)               %Inh              12
4  O=C(Nc1n[nH]c2cc(-c3cccc(F)c3)ccc12)C1CC1               %Inh               4
5  Cc1nnc(-c2ccc3ncc(-c4ccc(S(C)=O)cc4)n3c2)o1 (stereo not shown)               %Inh               8
6  COc1cc2c(cc1OC[C@@H](O)CO)ncc1c3ccc(C#N)cc3[nH]c21               %Inh               0
7  O=C1Cc2cc(Nc3nc(NCc4cccc(S(=O)(=O)C(F)(F)F)c4)ncc3C(F)(F)F)ccc2N1               %Inh               0

###

Listing of entries alongside the reported %Inh.
Tested on: ERBB4
Conditions: concentration: 1 μM, replicates: in singlicate; n = 1
MEASUREMENT_LABEL: %Inh (%)

> print(dat)
                              line.notation  measurement.label  unit.abbrev  value.measured
1  CCc1nc(-c2cccc(C)c2)c(-c2ccnc(NCc3ccccc3)c2)s1               %Inh            %               3
2  c1ccc(-c2cc(-c3c[nH]nc3-c3ccccn3)ccn2)cc1               %Inh            %              52
3  O=C(Nc1cccc(-c2nn3ncccc3c2-c2ccnc(Nc3cccc(C(F)(F)F)c3)n2)c1)c1c(F)cccc1F               %Inh            %            98.4

###

Test system: CAMK4
Conditions: concentration: 1 μM, replicates: in singlicate; n = 1
Listing of entries alongside the reported %Inh.
MEASUREMENT_LABEL: %Inh (%)

> print(dat)
                              line.notation  value.measured
1      CSc1ccc(-c2cc3ncnc(SCC(=O)O)c3s2)cc1               3
2  Fc1ccc(-c2nn3c(OCC(F)(F)F)cccc3c2-c2ccncc2)cc1               0
3  NS(=O)(=O)c1cccc(-c2ccc3ncc(N4CCOCC4)nc3c2)c1               0
4                        CNc1ncnc2[nH]ncc12               0
5  CN1c2ccc(CNc3ccc(F)cc3)cc2-c2c(cnn2C)S1(=O)=O               0
6  C[C@@H](Oc1cc(-n2cnc3ccc(NC(=O)NC(C)(C)C)cc32)sc1C(N)=O)c1ccccc1Cl               3
7  O=C(NCCNc1ccnc(Nc2ccc(F)cc2)n1)Nc1ccccc1F               0

###

Tested on: NEK9
Conditions: concentration: 1 μM, replicates: in singlicate; n = 1
Rule: %Inh below 7% gives condition met, anything at or above gives condition not met.

> print(dat)
                                    compound     assigned.label
 1  NS(=O)(=O)CCc1cccc(Nc2nccc(-c3c(-c4cccc(NC(=O)c5c(F)cccc5F)c4)nn4ccccc34)n2)c1 [GSK336735]  condition not met
 2  O=c1cc(N2CCOCC2)nc2n(Cc3cccc(C(F)(F)F)c3)ccn12 [GSK2297543]  condition not met
 3            CNc1ncnc2[nH]ncc12 [SKF-18355]      condition met
 4  COc1ccc(CNC(=O)NC2CCN(c3ccnc(Nc4ccc(OC)cc4)n3)C2)cc1 (stereo not drawn) [GSK1379727]      condition met
 5  Cn1ccc2ncnc(Oc3ccc(NC(=O)Nc4ccncc4)c(Cl)c3)c21      condition met
 6  CN(C1=C(c2ccccc2)C(=O)NC1=O)c1ccccc1 [SB-334860]  condition not met
 7    CCCCCc1nc2c(N)ncnc2n1CCCCC [SKF-97255]      condition met
 8  O=C(NOCC1CC1)c1ccc(F)c(F)c1Nc1ccc(I)cc1Cl      condition met
 9  O=C(NCCNc1ccnc(Nc2ccc(F)cc2)n1)c1cc2ccccc2s1 [GSK1379874]  condition not met
10  Cc1c2ccc(N(C)c3ccnc(Nc4cccc(S(N)(=O)=O)c4)n3)cc2nn1Cc1ccccc1.Cl.Cl [GW787226]      condition met
11  COc1cc2c(cc1OC[C@@H](O)CO)ncc1c3ccc(C#N)cc3[nH]c21      condition met
12  CCc1nc(-c2cccc(C)c2)c(-c2ccnc(NCc3ccccc3)c2)s1      condition met
13  Cl.Nc1ncnc2occ(-c3ccc(NC(=O)Nc4cc(C(F)(F)F)ccc4F)cc3)c12 [SB-707548]  condition not met
14  Cc1c(Cn2c(C)nn3c(=O)cc(N4CCOC(C)C4)nc23)cccc1C(F)(F)F (stereo not drawn) [GSK2344444]  condition not met
15  O=C(Nc1n[nH]c2cc(-c3cccc(F)c3)ccc12)C1CC1 [SB-735464]      condition met
16  CN(C(=O)c1ccc(-c2cc(-c3c[nH]nc3-c3ccccn3)ccn2)cc1)C1CCOCC1 [GW810083]  condition not met
